target: human IL-13 (human, UniProt P35225 35-146); experiment: cell-based or functional assay
Sequence (P35225 35-146 limits assumed, form in doubt): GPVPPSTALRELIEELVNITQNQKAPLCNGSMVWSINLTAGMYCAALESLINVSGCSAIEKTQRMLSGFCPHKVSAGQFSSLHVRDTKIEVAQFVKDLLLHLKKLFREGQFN
Each entry below carries its reported pSTAT6 IC50 [pM].
Answer in pM, number only, no unit symbol.

Sample records with pSTAT6 IC50 [pM]:
IL13-1307 (antibody, IgG1, V domains shown) VH: EVQLVESGGGLVQPGGSLRLSCAASGFTFSSYAMSWVRQAPGKGLEWVASISSGDTTYYPDSVKGRFTISRDNAKNSLYLQMNSLRAEDTAVYYCARLDGYYFGFPYWGQGTLVTVSS VL: DIQMTQSPSSLSASVGDRVTITCKASESVDHSGSSLMHWYQQKPGKAPKLLIYRASNLESGVPSRFSGSGSGTDFTLTISSLQPEDFATYYCQQSNEDPWTFGGGTKVEIK; 140
IL13-1308 (antibody, IgG1, V domains shown) VH: EVQLVESGGGLVQPGGSLRLSCAASGFTFSSYAMSWVRQAPGKGLEWVASISSGDTTYYPDSVKGRFTISRDNAKNSLYLQMNSLRAEDTAVYYCARLDGYYFGFPYWGQGTLVTVSS VL: DIQMTQSPSSLSASVGDRVTITCKASESVDHFGWSLVHWYQQKPGKAPKLLIYRASNLESGVPSRFSGSGSGTDFTLTISSLQPEDFATYYCQQSNEDPWTFGGGTKVEIKR; 42.7
IL13-1338 (antibody, IgG1, V domains shown) VH: EVQLVESGGGLVQPGGSLRLSCAASGFTFSSYAMSWVRQAPGKGLEWVASISSGDTTYYPDSVKGRFTISRDNAKNSLYLQMNSLRAEDTAVYYCARNEGYYFGLTLWGQGTLVTVSS VL: DIQMTQSPSSLSASVGDRVTITCKASESVDHSGSSLMHWYQQKPGKAPKLLIYRASNLESGVPSRFSGSGSGTDFTLTISSLQPEDFATYYCQQSNEDPWTFGGGTKVEIK; 87

Query string: What does the record list as pSTAT6 IC50 [pM] for IL13-0001 (antibody, human IgG1, kappa, V domains shown, also called IL13433-0001; 1RVHC9-VLA4) VH: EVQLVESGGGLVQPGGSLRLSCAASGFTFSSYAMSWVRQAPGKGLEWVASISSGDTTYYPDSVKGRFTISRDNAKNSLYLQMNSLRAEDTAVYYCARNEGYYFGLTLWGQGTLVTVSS VL: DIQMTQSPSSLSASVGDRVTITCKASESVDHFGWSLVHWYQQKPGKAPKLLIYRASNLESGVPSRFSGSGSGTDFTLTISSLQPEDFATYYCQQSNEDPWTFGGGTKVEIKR ?
Result string: 92

Data origin: patent US20240117030A1
